experiment: Drug concentration in Sprague-Dawley rat brain at 1 mg/kg, iv measured after 75 mins by LC-MS/MS analysis; type: ADME, organism-based; conditions: read-out: Ct
The entries below come with measured concentration at 1.25 h values attached.

chemical-string: O=S(=O)(c1cccc(Cl)c1)n1cc(C(F)F)c2c(N3CCNCC3)cccc21
concentration at 1.25 h [ng/g]: 224

chemical-string: O=S(=O)(c1cccc(F)c1)n1cc(C(F)F)c2c(N3CCNCC3)cccc21
concentration at 1.25 h [ng/g]: 128

* * *

test: Half life in Sprague-Dawley rat at 5 mg/kg, po measured for 24 hrs by LC-MS/MS analysis; format: ADME, organism-based; conditions: in vivo
Parameter: half-life. Scope: all listed entries.
measurement-type: half-life (h)

chemical-string: O=S(=O)(c1ccccc1F)n1cc(C(F)F)c2c(N3CCNCC3)cccc21
unit-name: h
val: 1.98
--
chemical-string: O=S(=O)(c1cccc(Cl)c1)n1cc(C(F)F)c2c(N3CCNCC3)cccc21
unit-name: h
val: 4.39
--
chemical-string: O=S(=O)(c1ccccc1Cl)n1cc(C(F)F)c2c(N3CCNCC3)cccc21
unit-name: h
val: 3.01
--
chemical-string: O=S(=O)(c1cccc(F)c1)n1cc(C(F)F)c2c(N3CCNCC3)cccc21
unit-name: h
val: 4.33

* * *

assay: Oral bioavailability in Sprague-Dawley rat at 5 mg/kg measured for 24 hrs by LC-MS/MS analysis; format: ADME, organism-based; conditions: Sprague-Dawley, in vivo

chemical-string: O=S(=O)(c1cccc(F)c1)n1cc(C(F)F)c2c(N3CCNCC3)cccc21
bioavailability: 34.4%
--
chemical-string: O=S(=O)(c1ccccc1Cl)n1cc(C(F)F)c2c(N3CCNCC3)cccc21
bioavailability: 29.5%
--
chemical-string: O=S(=O)(c1cccc(Cl)c1)n1cc(C(F)F)c2c(N3CCNCC3)cccc21
bioavailability: 37%
--
chemical-string: O=S(=O)(c1ccccc1F)n1cc(C(F)F)c2c(N3CCNCC3)cccc21
bioavailability: 18.5%

* * *

experiment: Ratio of drug concentration in Sprague-Dawley rat brain to plasma at 1 mg/kg, iv measured after 45 mins by LC-MS/MS analysis; assay type: ADME, organism-based; conditions: brain and plasma, read-out: BPR
measurement-type: Kp at 0.75 h

chemical-string: O=S(=O)(c1cccc(Cl)c1)n1cc(C(F)F)c2c(N3CCNCC3)cccc21
measurement-type: Kp at 0.75 h
val: 2.37
//
chemical-string: O=S(=O)(c1cccc(F)c1)n1cc(C(F)F)c2c(N3CCNCC3)cccc21
measurement-type: Kp at 0.75 h
val: 6.17

* * *

experiment: Ratio of drug concentration in Sprague-Dawley rat brain to plasma at 1 mg/kg, iv measured after 75 mins by LC-MS/MS analysis; assay type: ADME, organism-based; details: brain and plasma, read-out: BPR

chemical-string: O=S(=O)(c1cccc(F)c1)n1cc(C(F)F)c2c(N3CCNCC3)cccc21
Kp at 1.25 h: 6.16
--
chemical-string: O=S(=O)(c1cccc(Cl)c1)n1cc(C(F)F)c2c(N3CCNCC3)cccc21
Kp at 1.25 h: 3.21

* * *

assay: Drug concentration in Sprague-Dawley rat plasma at 1 mg/kg, iv measured after 75 mins by LC-MS/MS analysis; format: ADME, organism-based

chemical-string: O=S(=O)(c1cccc(Cl)c1)n1cc(C(F)F)c2c(N3CCNCC3)cccc21
unit-name: ng/mL
concentration at 1.25 h: 69.6
--
chemical-string: O=S(=O)(c1cccc(F)c1)n1cc(C(F)F)c2c(N3CCNCC3)cccc21
unit-name: ng/mL
concentration at 1.25 h: 20.8
